// provenance: ChEMBL document CHEMBL4831478

biological target: Estrogen receptor (Homo sapiens, UniProt P03372, Y537S); assay: Binding affinity to ERalpha Y537S mutant (unknown origin) expressed in Escherichia coli preincubated for 15 mins followed by ligand addition and measured after 1 hr by fluorescent polarization assay
Sequence (P03372 whole entry Y537S): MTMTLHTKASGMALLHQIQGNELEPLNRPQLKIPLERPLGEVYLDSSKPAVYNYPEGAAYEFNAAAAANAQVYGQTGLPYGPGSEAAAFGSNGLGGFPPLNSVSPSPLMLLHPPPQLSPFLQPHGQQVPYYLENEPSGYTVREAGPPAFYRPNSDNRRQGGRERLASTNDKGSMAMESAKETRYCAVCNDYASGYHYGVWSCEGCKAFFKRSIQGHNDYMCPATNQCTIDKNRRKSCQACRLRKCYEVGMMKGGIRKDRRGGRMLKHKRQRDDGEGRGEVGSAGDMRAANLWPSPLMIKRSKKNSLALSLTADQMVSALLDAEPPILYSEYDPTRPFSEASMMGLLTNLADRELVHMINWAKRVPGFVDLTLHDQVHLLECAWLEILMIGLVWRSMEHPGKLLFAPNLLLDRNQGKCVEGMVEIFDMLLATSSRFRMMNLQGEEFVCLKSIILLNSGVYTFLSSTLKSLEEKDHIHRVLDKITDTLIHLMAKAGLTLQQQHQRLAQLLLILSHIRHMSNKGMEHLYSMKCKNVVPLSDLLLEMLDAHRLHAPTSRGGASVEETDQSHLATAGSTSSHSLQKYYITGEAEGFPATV
pIC50: −log10 of the molar value.
measure name: pIC50

# compound, recorded number
records = [
    ("Cc1ncsc1-c1ccc(CNC(=O)N2C[C@H](O)CC2C(=O)[C@H](NC(=O)C2(F)CC2)C(C)(C)C)c(OCCOCc2cn(CCOc3ccc(Cn4c(-c5ccc(O)cc5)c(C)c5cc(O)ccc54)cc3)nn2)c1 (stereo not given in full)", 7.28),
    ("CN(Cc1cccc(O)c1Cl)C(C1CCCC1)C(F)(F)F (stereo not given)", 7.62),
    ("CN(Cc1cccc(O)c1Cl)CC1(c2ccccc2F)CCCC1", 8.09),
    ("Cc1ncsc1-c1ccc([C@H](C)NC(=O)[C@@H]2C[C@@H](O)CN2C(=O)[C@@H](NC(=O)COCCOCCOCc2cn(CCOc3ccc(Cn4c(-c5ccc(O)cc5)c(C)c5cc(O)ccc54)cc3)nn2)C(C)(C)C)cc1", 7.82),
    ("CN[C@@H](C)C(=O)N[C@H](C(=O)N1CCC[C@H]1c1nc(C(=O)c2cccc(OCCOCc3cn(CCOc4ccc(Cn5c(-c6ccc(O)cc6)c(C)c6cc(O)ccc65)cc4)nn3)c2)cs1)C1CCCCC1", 7.21),
    ("Cc1c(-c2ccc(O)cc2)n(Cc2ccc(OCCn3cc(COCCOc4cccc5c4C(=O)N(C4CCC(=O)NC4=O)C5=O)nn3)cc2)c2ccc(O)cc12 (stereo not given)", 8.49),
    ("Cc1ncsc1-c1ccc([C@H](C)NC(=O)[C@@H]2C[C@@H](O)CN2C(=O)[C@@H](NC(=O)COCCOCc2cn(CCOc3ccc(Cn4c(-c5ccc(O)cc5)c(C)c5cc(O)ccc54)cc3)nn2)C(C)(C)C)cc1", 7.42),
    ("Cc1ncsc1-c1ccc([C@H](C)NC(=O)[C@@H]2C[C@@H](O)CN2C(=O)[C@H](NC(=O)COCc2cn(CCOc3ccc(N(Cc4cccc(O)c4Cl)CC4(c5ccccc5F)CCCC4)cc3)nn2)C(C)(C)C)cc1", 6.48),
    ("Cc1ncsc1-c1ccc([C@H](C)NC(=O)[C@@H]2C[C@@H](O)CN2C(=O)[C@@H](NC(=O)COCc2cn(CCOc3ccc(Cn4c(-c5ccc(O)cc5)c(C)c5cc(O)ccc54)cc3)nn2)C(C)(C)C)cc1", 8.09),
    ("Cc1ncsc1-c1ccc([C@@H](C)NC(=O)[C@@H]2C[C@@H](O)CN2C(=O)[C@H](NC(=O)COCCOCc2cn(CCOc3ccc(N(Cc4cccc(O)c4Cl)CC4(c5ccccc5F)CCCC4)cc3)nn2)C(C)(C)C)cc1", 6.38),
]

* * *

Recorded half-life, one value per entry.
test: Half life in CD1 mouse at 10 mg/kg, sc administered as single dose […]; assay type: ADME, organism-based; conditions: in vivo

# test smiles, half-life
rows = [
    ("Cc1ncsc1-c1ccc([C@H](C)NC(=O)[C@@H]2C[C@@H](O)CN2C(=O)[C@H](NC(=O)COCc2cn(CCOc3ccc(N(Cc4cccc(O)c4Cl)CC4(c5ccccc5F)CCCC4)cc3)nn2)C(C)(C)C)cc1", "1260 min"),
    ("Cc1ncsc1-c1ccc([C@@H](C)NC(=O)[C@@H]2C[C@@H](O)CN2C(=O)[C@H](NC(=O)COCCOCc2cn(CCOc3ccc(N(Cc4cccc(O)c4Cl)CC4(c5ccccc5F)CCCC4)cc3)nn2)C(C)(C)C)cc1", "1020 min"),
]

* * *

Recorded fraction unbound, one value per entry.
experiment: Plasma protein binding in human; assay type: ADME, cell-free; conditions: read-out: PPB

# test smiles, fraction unbound
records = [
    ("Cc1ncsc1-c1ccc([C@@H](C)NC(=O)[C@@H]2C[C@@H](O)CN2C(=O)[C@H](NC(=O)COCCOCc2cn(CCOc3ccc(N(Cc4cccc(O)c4Cl)CC4(c5ccccc5F)CCCC4)cc3)nn2)C(C)(C)C)cc1", "< 0.004"),
    ("Cc1ncsc1-c1ccc([C@H](C)NC(=O)[C@@H]2C[C@@H](O)CN2C(=O)[C@H](NC(=O)COCc2cn(CCOc3ccc(N(Cc4cccc(O)c4Cl)CC4(c5ccccc5F)CCCC4)cc3)nn2)C(C)(C)C)cc1", "< 0.004"),
]

* * *

test system: MCF7; assay: Antiproliferative activity against human MCF7 cells assessed as growth inhibition preincubated with estradiol for 30 mins followed by compound addition and measured after 7 days by CellTiter-Glo assay; format: functional; settings: MCF7, 168 h, time 7 day
Recorded GI50, one value per entry.

# compound, limit qualifier, GI50 (µM)
records = [
    ("CN[C@@H](C)C(=O)N[C@H](C(=O)N1CCC[C@H]1c1nc(C(=O)c2cccc(OCCOCc3cn(CCOc4ccc(Cn5c(-c6ccc(O)cc6)c(C)c6cc(O)ccc65)cc4)nn3)c2)cs1)C1CCCCC1", "=", 0.051),
    ("CN(Cc1cccc(O)c1Cl)CC1(c2ccc(OCCN3CCCCC3)cc2F)CCCC1", ">", 10),
    ("CN(Cc1cccc(O)c1Cl)C(C1CCCC1)C(F)(F)F (configuration not stated)", ">", 10),
    ("CN[C@H](C)C(=O)N[C@H](C(=O)N1CCC[C@H]1c1nc(C(=O)c2ccc(F)cc2)cs1)C1CCN(C(=O)COCCOCc2cn(CCOc3ccc(Cn4c(-c5ccc(O)cc5)c(C)c5cc(O)ccc54)cc3)nn2)CC1", ">", 10),
    ("Cc1ncsc1-c1ccc([C@H](C)NC(=O)[C@@H]2C[C@@H](O)CN2C(=O)[C@H](NC(=O)COCc2cn(CCOc3ccc(N(Cc4cccc(O)c4Cl)CC4(c5ccccc5F)CCCC4)cc3)nn2)C(C)(C)C)cc1", "=", 0.165),
    ("Oc1cccc(CN(CC2(c3ccccc3F)CCCC2)c2ccc(OCCN3CCCCC3)cc2)c1Cl", "=", 0.068),
    ("Cc1ncsc1-c1ccc([C@H](C)NC(=O)[C@@H]2C[C@@H](O)CN2C(=O)[C@@H](NC(=O)COCc2cn(CCOc3ccc(Cn4c(-c5ccc(O)cc5)c(C)c5cc(O)ccc54)cc3)nn2)C(C)(C)C)cc1", "=", 0.247),
    ("Oc1cccc(CN(CC2(c3ccccc3F)CCCC2)c2ccccc2)c1Cl", ">", 10),
    ("Cc1ncsc1-c1ccc([C@H](C)NC(=O)[C@@H]2C[C@@H](O)CN2C(=O)[C@@H](NC(=O)COCCOCc2cn(CCOc3ccc(Cn4c(-c5ccc(O)cc5)c(C)c5cc(O)ccc54)cc3)nn2)C(C)(C)C)cc1", "=", 0.335),
    ("Cc1ncsc1-c1ccc([C@H](C)NC(=O)[C@@H]2C[C@@H](O)CN2C(=O)[C@@H](NC(=O)COCCOCCOCc2cn(CCOc3ccc(Cn4c(-c5ccc(O)cc5)c(C)c5cc(O)ccc54)cc3)nn2)C(C)(C)C)cc1", "=", 0.211),
    ("Cc1c(-c2ccc(O)cc2)n(Cc2ccc(OCCn3cc(COCCOc4cccc5c4C(=O)N(C4CCC(=O)NC4=O)C5=O)nn3)cc2)c2ccc(O)cc12 (configuration not stated)", "=", 3.25),
    ("Cc1ncsc1-c1ccc(CNC(=O)N2C[C@H](O)CC2C(=O)[C@H](NC(=O)C2(F)CC2)C(C)(C)C)c(OCCOCc2cn(CCOc3ccc(Cn4c(-c5ccc(O)cc5)c(C)c5cc(O)ccc54)cc3)nn2)c1 (some centres not stated)", "=", 0.034),
]

* * *

assay: Bioavailability in CD1 mouse at 10 mg/kg, sc administered as single dose […]; assay type: ADME, organism-based; details: in vivo
Recorded bioavailability, one value per entry.
measure name: bioavailability

# test smiles, result
data = [
    ("Cc1ncsc1-c1ccc([C@H](C)NC(=O)[C@@H]2C[C@@H](O)CN2C(=O)[C@H](NC(=O)COCc2cn(CCOc3ccc(N(Cc4cccc(O)c4Cl)CC4(c5ccccc5F)CCCC4)cc3)nn2)C(C)(C)C)cc1", "83%"),
    ("Cc1ncsc1-c1ccc([C@@H](C)NC(=O)[C@@H]2C[C@@H](O)CN2C(=O)[C@H](NC(=O)COCCOCc2cn(CCOc3ccc(N(Cc4cccc(O)c4Cl)CC4(c5ccccc5F)CCCC4)cc3)nn2)C(C)(C)C)cc1", "> 100%"),
]
